test target: Proprotein convertase subtilisin/kexin type 9 (PCSK9) (Homo sapiens)
Construct: His-tagged recombinant PCSK9 wild type
Sequence (Q8NBP7 31-152): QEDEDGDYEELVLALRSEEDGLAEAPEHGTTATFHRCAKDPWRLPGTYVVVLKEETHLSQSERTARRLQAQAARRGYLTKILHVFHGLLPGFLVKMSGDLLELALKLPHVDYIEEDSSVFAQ
Sequence (Q8NBP7 153-692): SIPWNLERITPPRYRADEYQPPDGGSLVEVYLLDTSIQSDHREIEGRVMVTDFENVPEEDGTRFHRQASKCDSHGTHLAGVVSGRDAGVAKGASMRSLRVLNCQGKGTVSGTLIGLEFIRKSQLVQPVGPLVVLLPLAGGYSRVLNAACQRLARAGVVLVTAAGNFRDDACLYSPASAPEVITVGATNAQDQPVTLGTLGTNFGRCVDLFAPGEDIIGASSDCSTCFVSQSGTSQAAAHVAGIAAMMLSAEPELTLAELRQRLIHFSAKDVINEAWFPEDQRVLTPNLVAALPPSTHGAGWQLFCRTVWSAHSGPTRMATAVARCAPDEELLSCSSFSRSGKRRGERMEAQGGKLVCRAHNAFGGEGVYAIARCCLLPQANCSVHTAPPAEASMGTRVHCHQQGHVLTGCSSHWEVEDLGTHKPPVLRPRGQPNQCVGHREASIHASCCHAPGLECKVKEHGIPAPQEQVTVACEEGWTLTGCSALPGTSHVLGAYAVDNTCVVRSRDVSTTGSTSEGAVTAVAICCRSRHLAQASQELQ
Sequence (P01130 22-860 partner): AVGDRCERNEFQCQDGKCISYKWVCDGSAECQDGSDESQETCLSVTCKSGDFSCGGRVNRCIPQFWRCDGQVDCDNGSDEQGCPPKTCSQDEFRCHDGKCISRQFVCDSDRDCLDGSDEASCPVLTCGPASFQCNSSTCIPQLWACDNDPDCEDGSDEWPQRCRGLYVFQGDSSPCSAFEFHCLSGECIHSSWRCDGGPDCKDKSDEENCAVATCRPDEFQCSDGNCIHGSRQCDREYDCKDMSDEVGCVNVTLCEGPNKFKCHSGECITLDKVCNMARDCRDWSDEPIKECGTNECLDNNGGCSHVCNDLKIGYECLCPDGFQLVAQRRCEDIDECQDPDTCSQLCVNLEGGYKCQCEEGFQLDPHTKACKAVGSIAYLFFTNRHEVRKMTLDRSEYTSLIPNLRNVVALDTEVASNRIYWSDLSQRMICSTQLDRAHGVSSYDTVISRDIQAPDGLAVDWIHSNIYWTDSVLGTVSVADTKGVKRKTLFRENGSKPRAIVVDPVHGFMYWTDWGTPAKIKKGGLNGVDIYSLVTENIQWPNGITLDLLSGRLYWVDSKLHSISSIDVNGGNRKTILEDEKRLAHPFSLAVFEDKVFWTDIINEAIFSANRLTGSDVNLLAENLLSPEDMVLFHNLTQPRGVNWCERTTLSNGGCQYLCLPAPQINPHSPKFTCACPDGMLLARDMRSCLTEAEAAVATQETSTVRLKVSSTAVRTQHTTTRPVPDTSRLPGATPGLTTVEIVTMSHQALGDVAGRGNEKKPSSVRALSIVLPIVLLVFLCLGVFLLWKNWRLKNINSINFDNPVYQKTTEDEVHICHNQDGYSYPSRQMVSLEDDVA
run description: CircuLex PCSK9-LDLR in vitro binding assay kit (plate-based, ELISA-type)
observable: pIC50
Friendly reminder that pIC50 comes from taking -log10 of the concentration in mol/L.

Reported pIC50 for Oc1ccc2c(c1)OC[C@]1(O)Cc3cc(O)c(O)cc3[C@H]21 was 5.66
